biological target: PKM2 (Homo sapiens, UniProt P14618); construct: PKM2 stock enzyme solution was diluted in Reaction Buffer; assay: PKM2 Assay (activation, LDH-coupled NADH absorbance at 340 nm); settings: activation of PKM2
Sequence (P14618 whole entry): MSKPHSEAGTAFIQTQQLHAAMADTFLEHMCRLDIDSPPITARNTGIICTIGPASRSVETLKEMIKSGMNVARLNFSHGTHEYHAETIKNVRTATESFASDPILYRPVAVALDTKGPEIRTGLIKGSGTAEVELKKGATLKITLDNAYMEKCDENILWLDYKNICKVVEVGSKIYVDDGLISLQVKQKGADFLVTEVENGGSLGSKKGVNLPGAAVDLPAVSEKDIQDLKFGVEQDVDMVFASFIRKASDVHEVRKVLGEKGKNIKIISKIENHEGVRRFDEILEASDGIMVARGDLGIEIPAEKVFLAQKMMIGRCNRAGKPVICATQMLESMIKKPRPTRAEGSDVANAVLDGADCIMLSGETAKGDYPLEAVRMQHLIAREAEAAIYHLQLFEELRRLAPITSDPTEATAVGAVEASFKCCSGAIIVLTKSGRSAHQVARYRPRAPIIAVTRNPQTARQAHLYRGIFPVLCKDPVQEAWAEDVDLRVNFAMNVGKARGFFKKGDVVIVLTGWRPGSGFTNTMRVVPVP
Listing: EC50 of selected molecules
readout: EC50

smiles_string	target_desc	result
Cc1cc(C)cc(OCC(=O)N2CCN(S(=O)(=O)c3ccc4ccccc4c3)CC2)c1	PKM2 (Homo sapiens, UniProt P14618)	< 10 µM
O=C(COc1ccccc1)N1CCN(S(=O)(=O)c2ccc(F)cc2)CC1	PKM2 (Homo sapiens, UniProt P14618)	< 10 µM
O=C(CNc1ccccc1)N1CCN(S(=O)(=O)c2ccc3ccccc3c2)CC1	PKM2 (Homo sapiens, UniProt P14618)	< 10 µM

These data points were gathered from patent US9115086B2.
